Assay: Pharmacokinetic study of pirtobrutinib in rats
Type: in vivo, Sprague–Dawley rats
Conditions: male, Sprague-Dawley, rat, plasma, po, 10 mg/kg
MEASUREMENT_NAME: Cmax (ng/mL)
Quick reminder: number only, in ng/mL, skip the unit.

For the compound "COc1ccc(F)cc1C(=O)NCc1ccc(-c2nn([C@@H](C)C(F)(F)F)c(N)c2C(N)=O)cc1" , what Cmax is on record?
344

====

Experiment: Pharmacokinetic study of pirtobrutinib in rats
Format: in vivo, Sprague–Dawley rats
Conditions: male, Sprague-Dawley, rat, plasma, po, 10 mg/kg
MEASUREMENT_NAME: AUC(0-inf) (ng·h/mL)
Quick reminder: number only, in ng·h/mL, skip the unit.

For the compound "COc1ccc(F)cc1C(=O)NCc1ccc(-c2nn([C@@H](C)C(F)(F)F)c(N)c2C(N)=O)cc1" , what AUC(0-inf) is on record?
2350

====

Assay: Pharmacokinetic study of pirtobrutinib in rats
Type: in vivo, Sprague–Dawley rats
Conditions: male, Sprague-Dawley, rat, plasma, po, 10 mg/kg
MEASUREMENT_NAME: MRT inf (h)
Quick reminder: number only, in h, skip the unit.

For the compound "COc1ccc(F)cc1C(=O)NCc1ccc(-c2nn([C@@H](C)C(F)(F)F)c(N)c2C(N)=O)cc1" , what MRT inf is on record?
5.15

====

Experiment: Pharmacokinetic study of pirtobrutinib in rats
Format: in vivo, Sprague–Dawley rats
Conditions: male, Sprague-Dawley, rat, plasma, po, 10 mg/kg
MEASUREMENT_NAME: half-life (h)
Quick reminder: number only, in h, skip the unit.

For the compound "COc1ccc(F)cc1C(=O)NCc1ccc(-c2nn([C@@H](C)C(F)(F)F)c(N)c2C(N)=O)cc1" , what half-life is on record?
2.95

====

Assay: Pharmacokinetic study of pirtobrutinib in rats
Format: in vivo, Sprague–Dawley rats
Details: male, Sprague-Dawley, rat, plasma, po, 10 mg/kg
MEASUREMENT_NAME: Tmax (h)
Quick reminder: number only, in h, skip the unit.

For the compound "COc1ccc(F)cc1C(=O)NCc1ccc(-c2nn([C@@H](C)C(F)(F)F)c(N)c2C(N)=O)cc1" , what Tmax is on record?
1.08

====

Test: Pharmacokinetic study of pirtobrutinib in rats
Format: in vivo, Sprague–Dawley rats
Settings: male, Sprague-Dawley, rat, plasma, po, 10 mg/kg
MEASUREMENT_NAME: AUC(0-t) (ng·h/mL)
Quick reminder: number only, in ng·h/mL, skip the unit.

For the compound "COc1ccc(F)cc1C(=O)NCc1ccc(-c2nn([C@@H](C)C(F)(F)F)c(N)c2C(N)=O)cc1" , what AUC(0-t) is on record?
2340

====

Experiment: Pharmacokinetic study of pirtobrutinib in rats
Assay type: in vivo, Sprague–Dawley rats
Conditions: male, Sprague-Dawley, rat, plasma, oral, 10 mg·kg−1
MEASUREMENT_NAME: concentration at 0.25 h (ng/mL)
Quick reminder: number only, in ng/mL, skip the unit.

For the molecule "COc1ccc(F)cc1C(=O)NCc1ccc(-c2nn([C@@H](C)C(F)(F)F)c(N)c2C(N)=O)cc1" , what concentration at 0.25 h is on record?
140
